Kindly state selectivity ratio at 20 h for each of the entries shown.
- Assay overview: Selectivity index, TC50 for african green monkey BSC1 cells after 20 hrs to EC50 for Vaccinia virus WR in BSC1 cells after 20 hrs by cell protection assay
- Type: toxicity, cell-based, BSC-1
- Condition description: read-out: Selectivity Index

Req: Returns the measured selectivity ratio at 20 h for the input compound. Input: CC(=O)n1c2ccccc2c2nc(C)sc21
Resp: > 1

Req: Entry to check: COC(=O)c1cccc2c1-c1ccccc1/C2=N\O
Resp: 13.2

Req: Record: Cc1c(/N=C/c2cc(Br)cc(Br)c2O)cccc1C(=O)O
Resp: > 2

Req: Follow-up item: O=C1/C(=C/C2CCCO2)CC/C1=C\C1CCCO1 (configuration not stated)
Resp: > 1

Req: Next record, please: Cc1ccc2c(Sc3ccc(Cl)cc3)c(C(=O)O)[nH]c2c1
Resp: > 1.5

Req: // same read-out, input: N=C1/C(=C/c2coc3ccccc3c2=O)C(=O)N=C2SC=NN12
Resp: > 1

Req: Similarly, Cc1cc(OC(=O)c2ccco2)nc(SCc2c(Cl)cccc2Cl)n1 ?
Resp: > 2

Req: Follow-up entry: Nc1ccn(C[C@@H](CO)OCP(=O)(O)O)c(=O)n1
Resp: > 3.8

Req: Another compound to look at: Cc1ccc2oc(-c3ccccc3)c/c(=N\CCO)c2c1
Resp: > 3.5

Req: And Cc1cc(/N=C/c2cc(Cl)cc(Cl)c2O)no1 ?
Resp: > 2.1

Req: # repeat for O=C(Nc1ccccc1C(=O)O)OCC1c2ccccc2-c2ccccc21
Resp: > 1.9

Req: Field entry: N=C1S/C(=C/c2ccco2)C(=O)N1c1nccs1
Resp: > 1.2

---

- System: Vaccinia virus
- Assay overview: Inhibition of Vaccinia virus DNA synthesis in by rapid plate assay
- Format: functional, organism-based
- Condition description: Orthopoxvirus vaccinia
Parameter measured: IC50 (µM)
Provide the reading as a plain figure in µM.

Req: Which IC50 is listed for CCOC(=O)c1cc(-c2ccccc2)n(-c2ccc(C(=O)O)cc2)c1C ?
Resp: 120

Req: What do you get for CCN(CC)CCCNc1nc2cc(OC)c(OC)cc2c2nc(-c3ccccc3)nn12 ?
Resp: 5.9

Req: What do we get for CCn1c2ccccc2c2ccc(/C=N/n3cnnc3)cc21 ?
Resp: 131

Req: One more molecule: O=C1/C(=C/C2CCCO2)CC/C1=C\C1CCCO1 (stereo unspecified)
Resp: 239

Req: Entry COc1ccc2c(c1)C=C/C(=C\c1sc3ccccc3[n+]1C)N2C.[Cl-] please
Resp: 4

Req: Then what about the molecule CCS(=O)(=O)N1CCN=C1SCc1ccc(Cl)cc1Cl ?
Resp: 188

Req: What do you get for COc1ccc2nc(NC(=N)N)nc(C)c2c1 ?
Resp: 7.4

Req: # repeat for COc1ccc2c(C)nc(NC(=N)/N=C(\C)c3ccccc3C(=O)O)nc2c1
Resp: 13

Req: Same lookup for COc1ccc(-c2cc3ccccn3c2C(=O)c2cccnc2)c(OC)c1 , please.
Resp: 25

Req: Do the same for O=C(Nc1ccccc1C(=O)O)OCC1c2ccccc2-c2ccccc21 please
Resp: 26

Req: Would you mind doing C=C1C(C(=O)NCc2ccco2)C1C(=O)NCc1ccco1 (stereo unspecified) as well?
Resp: 272

---

Hi there, I'd appreciate the recorded log10 of CC50 at 72 h for every entry that follows.
- Assay overview: Cytotoxicity against african green monkey BSC1 cells after 72 hrs WST-1 based assay
- Type: cell-based, BSC-1
- Condition description: chlorocebus aethiops, read-out: TC50
Plainly stated, the numbers are log10 of CC50 at 72 h given in µM.

Req: # lookup: log10 of CC50 at 72 h of O=C(Nc1ccccc1C(=O)O)OCC1c2ccccc2-c2ccccc21
Resp: 1.60

Req: Field entry: Cc1ccc2c(Sc3ccc(Cl)cc3)c(C(=O)O)[nH]c2c1
Resp: 2.24

Req: Now this one: O=C(O)Cn1c2ccc(Cl)cc2c2nc3ccccc3nc21
Resp: 1.11

Req: Ok, now CCn1c2ccccc2c2ccc(/C=N/n3cnnc3)cc21
Resp: 1.56

Req: N/N=C1\CCCc2c1[nH]c1ccc(C(=O)NN)cc21 ?
Resp: 1.54

Req: Another: COc1ccc(-c2cc3ccccn3c2C(=O)c2cccnc2)c(OC)c1
Resp: 2.18

Req: Field entry: Cc1cc(/N=C/c2cc(Cl)cc(Cl)c2O)no1
Resp: 1.70

Req: Moving on to the next molecule: Cc1c(/N=C/c2cc(Br)cc(Br)c2O)cccc1C(=O)O
Resp: 1.58

---

- Assay overview: Selectivity index, TC50 for african green monkey BSC1 cells after 20 hrs to EC50 for Vaccinia virus WR in BSC1 cells after 20 hrs by cell protection assay
- Type: toxicity, cell-based, BSC-1
- Condition description: read-out: Selectivity Index
Parameter measured: selectivity ratio at 20 h
Reply: number alone, nothing else.

Req: Recorded selectivity ratio at 20 h of Cc1csc2c(N3CCN(C(=O)NC(C)(C)C)CC3)ncnc12 , please.
Resp: 3.1

Req: Next entry: CCNc1nc(SCc2ccc(Cl)cc2)nc2sc3c(c12)CCN(C)C3
Resp: 2.6

---

- Assay overview: Cytotoxicity against african green monkey BSC1 cells after 20 hrs WST-1 based assay
- Format: cell-based, BSC-1
- Condition description: chlorocebus aethiops, read-out: TC50
Parameter measured: CC50 at 20 h

Req: I would be grateful if you could share the reported CC50 at 20 h for Nc1[nH]c(=S)sc1C(=O)Nc1nccs1 .
Resp: > 200 µM

Req: How about COc1ccc(Nc2cc(C(F)(F)F)ccc2Cl)c(C(=O)O)c1 ?
Resp: > 200 µM

Req: Next: O=C(/C=C/c1ccco1)/C=C/c1ccco1
Resp: > 200 µM

Req: Proceed to Cc1ccc2c(Sc3ccc(Cl)cc3)c(C(=O)O)[nH]c2c1
Resp: > 200 µM

Req: Would you kindly repeat that for COC(=O)c1cccc2c1-c1ccccc1/C2=N\O ?
Resp: 127 µM

Req: Would you mind doing Nc1ccn(C[C@@H](CO)OCP(=O)(O)O)c(=O)n1 [CIDOFOVIR] as well?
Resp: > 500 µM

Req: # iterate: CCS(=O)(=O)N1CCN=C1SCc1ccc(Cl)cc1Cl
Resp: 166 µM

Req: Try the molecule S=c1nc(-c2ccco2)c2c(=S)[nH]c(=S)[nH]c2[nH]1
Resp: > 200 µM

Req: // repeat for Cc1cc(/N=C/c2cc(Cl)cc(Cl)c2O)no1 and report
Resp: > 200 µM

Req: Please give the result for CCN1CCN(CCCNC(=O)c2ccc3c(c2)NC(=O)/C(=C\C(=O)c2ccc(OC)cc2)N3)CC1 too.
Resp: > 200 µM

Req: For Cc1cc2c(cc3c(=O)n(CC(=O)NCCN4CCOCC4)ncn32)s1 then?
Resp: 100 µM

---

Consider the following compounds; for each one, report its EC50.
- Test system: Vaccinia virus
- Assay overview: Antiviral activity against Vaccinia virus WR in BSC1 cells assessed as protection from virus-induced lysis of cell monolayer after 20 hrs
- Type: functional, organism-based
- Condition description: Orthopoxvirus vaccinia, BSC-1, 20 h
Answer format: numeric, µM implied, no suffix.

Req: Would you mind telling me what EC50 value was observed for O=C(O)Cn1c2ccc(Cl)cc2c2nc3ccccc3nc21 ?
Resp: 100

Req: Continue with COC(=O)c1cccc2c1-c1ccccc1/C2=N\O
Resp: 9.6

Req: Likewise for COc1ccc(-c2cc3ccccn3c2C(=O)c2cccnc2)c(OC)c1 ?
Resp: 87

Req: Input CCS(=O)(=O)N1CCN=C1SCc1ccc(Cl)cc1Cl
Resp: 90

Req: Entry Cc1nc2ccccc2c2oc(C(=O)NCCN(C)C3CCCCC3)cc12 please
Resp: 41

Req: Repeat for the following compound: CN(C)Cc1ccc2ccc3cccc4ccc1c2c34
Resp: 25

Req: Then this compound: N=C1S/C(=C/c2ccco2)C(=O)N1c1nccs1
Resp: 80

Req: And what about the compound Cc1cc(OC(=O)c2ccco2)nc(SCc2c(Cl)cccc2Cl)n1 ?
Resp: 100

Req: Here is the next compound: COc1ccc(Nc2nc(N3CCN(C)CC3)nc3ccccc23)c(OC)c1
Resp: 18

Req: Then what about the compound N/N=C1\CCCc2c1[nH]c1ccc(C(=O)NN)cc21 ?
Resp: 193

Req: Same again, this time with CCN(CC)Cn1nc2c3c(cccc3c1=O)-c1ccccc1-2
Resp: 14

Req: Quick one: Cc1csc2c(N3CCN(C(=O)NC(C)(C)C)CC3)ncnc12
Resp: 50

Req: And Cc1cc2c(cc3c(=O)n(CC(=O)NCCN4CCOCC4)ncn32)s1 ?
Resp: 23

Req: Next entry: Cc1ccc2oc(-c3ccccc3)c/c(=N\CCO)c2c1
Resp: 57

---

- Assay overview: Cytotoxicity against african green monkey BSC1 cells after 20 hrs WST-1 based assay
- Assay type: cell-based, BSC-1
- Condition description: chlorocebus aethiops, read-out: TC50
Parameter measured: CC50 at 20 h

Req: Given the compound C/N=C1/c2c(C)c3cc(OC)ccc3n2CCN1C , what is its reported CC50 at 20 h?
Resp: > 200 µM

Req: Next entry: CN(C)CCOC(=O)c1ccc2[nH]c3c(c2c1)CSCC3
Resp: > 200 µM

Req: COC(=O)C(C(=O)OC)C(Nc1ccccc1)c1ccccc1 (stereo unspecified) , same question.
Resp: > 200 µM

Req: Item: COc1ccc2cc3cc(C(=O)NCCN(C)C)oc3nc2c1
Resp: > 200 µM

Req: Try the compound CC(=O)n1c2ccccc2c2nc(C)sc21
Resp: > 200 µM

Req: Param item: Cc1ccc2oc(-c3ccccc3)c/c(=N\CCO)c2c1
Resp: > 200 µM

Req: Let us now turn to O=C(O)Cn1c2ccc(Cl)cc2c2nc3ccccc3nc21
Resp: > 100 µM

Req: Please answer likewise for O=C(O)c1ccc2c(c1)NC(=O)C(CSCc1ccccc1Cl)N2 (stereo unspecified)
Resp: > 200 µM

Req: Now consider Cc1ccc(C)n1-c1cccc(C(=O)O)c1 .
Resp: > 200 µM

Req: Same read-out for Cc1cc(OCC(=O)NC(Cc2c[nH]c3ccccc23)C(=O)O)cc(C)c1Cl (stereo unspecified) ?
Resp: > 200 µM

Req: Can you check N/N=C1\CCCc2c1[nH]c1ccc(C(=O)NN)cc21 next?
Resp: > 200 µM

Req: Quick one: CCn1c2ccccc2c2ccc(/C=N/n3cnnc3)cc21
Resp: > 200 µM

Req: What do you have for O=C1/C(=C/c2ccc(Br)o2)CC/C1=C\c1ccc(Br)o1 ?
Resp: > 200 µM

Req: Next compound up: CN(c1ccccc1C(=O)O)S(=O)(=O)c1ccc2c3c(cccc13)C(=O)N2
Resp: > 200 µM

Req: Please answer likewise for C[n+]1ccc(/C=C/c2ccc3c(c2)OCO3)c2ccccc21
Resp: > 200 µM

Req: Same question, CC1=NN(c2ccccc2)C(=O)/C1=C\c1cn(CC(O)CN2CCCCC2)c2ccccc12 (stereo unspecified) this time
Resp: 79 µM

Req: And CC1=NN(c2cccc(C(=O)O)c2)C(=O)/C1=C\c1ccc(-c2cccc(Cl)c2C)o1 ?
Resp: > 200 µM

Req: Follow-up item: O=C1N=C(Nc2cccc(C(=O)O)c2)S/C1=C\c1ccc(-c2ccc(C(=O)O)cc2)o1
Resp: > 200 µM

Req: Queued: N=C1/C(=C/c2coc3ccccc3c2=O)C(=O)N=C2SC=NN12
Resp: > 200 µM

Req: What do we get for O=C1NC(=S)N(c2ccccc2)C(=O)/C1=C\C=C\c1ccco1 ?
Resp: > 200 µM

Req: Another compound to look at: Cc1c(C)n(CCN(C)C)c2ccc(C(=O)OCCN(C)C)cc12 [AMINDOCATE]
Resp: > 200 µM

Req: And what about the compound CN(C)CCCNc1c2c(nc3ccccc13)CCC2 ?
Resp: 172 µM

Req: Please answer likewise for Oc1ccc(C2(c3ccc(O)cc3)CCCC2)cc1
Resp: 35 µM

Req: Next record, please: O=C(Nc1ccccc1C(=O)O)OCC1c2ccccc2-c2ccccc21
Resp: > 200 µM

Req: And the next one, CCOC(=O)c1c(NC(=O)/C=C/C(=O)O)sc(C)c1-c1ccccc1 ?
Resp: 159 µM

Req: Another compound: CN(C)CCN(C(=O)c1ccco1)c1nc2cc3c(cc2s1)OCO3
Resp: > 200 µM

Req: One more compound: O=C(O)C1Nc2ccccc2C2C=CCC12 (stereo unspecified)
Resp: > 200 µM

Req: Also need Cc1csc2c(N3CCN(C(=O)NC(C)(C)C)CC3)ncnc12 , thanks.
Resp: 157 µM

Req: Now consider CCOC(=O)c1cc(-c2ccccc2)n(-c2ccc(C(=O)O)cc2)c1C and answer again.
Resp: > 200 µM

Req: Similarly, CC(C)c1ccc(C2Nc3ccc(C(=O)O)cc3C3C=CCC32)cc1 (stereo unspecified) ?
Resp: > 200 µM

Req: Request: CCN1C(=O)/C(=C\C=C\c2ccco2)C(=O)NC1=S
Resp: 72 µM

Req: O=C1/C(=C/C2CCCO2)CC/C1=C\C1CCCO1 (stereo unspecified) , same question.
Resp: > 100 µM

Req: What do we get for CN(C)/C=C/C=C1C(=O)CCCC1=O ?
Resp: > 200 µM

Req: Also, CN1CCc2c(-c3cccs3)nc(OCc3ccccc3Br)c(C#N)c2C1 please.
Resp: 82 µM

Req: Lookup N=C1S/C(=C/c2ccco2)C(=O)N1c1nccs1
Resp: > 100 µM

Req: Try this compound too: N=C(N)Nc1nc(-c2ccccc2)c2ccccc2n1
Resp: 49 µM
